The sequences listed here are annotated with their relative integration efficiency (log2).
tested on: VchCAST RNA-guided transposition machinery (E. coli BL21(DE3) host, lacZ target); assay: relative integration efficiency (T-RL orientation) vs wild-type transposon end (log2 (normalized fold change)); transposon end mutated: left end; higher = more efficient transposition
Please reply with the number alone, leaving off any unit.

{"Biopolymer sequence": "AATGTTGTTGATGCAACCATAAAGTGATATTTAATAACTTCGTATAATGTATGCTATACGAAGTTATCAACCATATATTGATATCTCACAAAACAACCATAAGTTGATATTTTTGTGAATCGAGTATTTCAGCAAAACTACTGCAGTAAGAA", "relative integration efficiency (log2)": -2.95}
{"Biopolymer sequence": "AATGTTGTTGATGCAACCATAAAGTGATATTTAATAATCAACTGTATATAAATACAGTTCCACAAAACAACCATATATTGATATCTCACAAAACAACCATAAGTTGATATTTTTGTGAATCGAGTATTTCAGCAAAACTACTGCAGTAAGAA", "relative integration efficiency (log2)": -4.85}
{"Biopolymer sequence": "AATGTTGTTGATGCAACCATAAAGTGATATTTAAAGTACAGCGCGACTGAACTCATCATTAAAACGACAACCATATATTGATATCTCACAAAACAACCATAAGTTGATATTTTTGTGAATCGAGTATTTCAGCAAAACTACTGCAGTAAGAA", "relative integration efficiency (log2)": -2.4}
{"Biopolymer sequence": "AATGTTGTTGATGCAACCATAAAGTGATATTTAATAATTATTTATAATCCAACCATATATTGATATCTCACAAAACAACCATAAGTTGATATTTTTGTGAATCGAGTATTTCAGCAAAACTACTGCAGTAAGAAAGTTACTTCGTGGTATGG", "relative integration efficiency (log2)": -6.76}
{"Biopolymer sequence": "AATGTTGTTGATGCAACCATAAGTTGATATTTTATAATTATTTATAATCAGCAACTTAACCACAAAACAACCATAAGTTGATATTTTACAAAAGTTGGTATTCAACTATAAAATGTGAATCGAGTATTTCAGCAAAACTACTGCAGTAAGAA", "relative integration efficiency (log2)": -3.19}

Sample `AATGTTGTTGATGCAACCATAAAGTGATATTTAATAATTATTTATAATCAGCAACTTAACCACAAAACAACACGCGCGGTCGCGAGACACCCCACCAACGCCTGGTCGCGGGGGTGTCCGATCTGATTTCAGCAAAACTACTGCAGTAAGAA` — what was its relative integration efficiency (log2)?
-7.6

Value lookup for relative integration efficiency (log2); key = `AATGTTGTTGATGCAACCATAAAGTGATATTTAATAATTATTTATAATCAGCAACTTAACCAACCATATATTGATATCTCCACAAAAACAAAACAACCATAAGTTGATATTTTTGTGAATCGAGTATTTCAGCAAAACTACTGCAGTAAGAA`
-2.66

Look at this sequence and give its reported relative integration efficiency (log2). `AATGTTGTTGATGCAACCATAAAGTGATATTTACGTCTGTACAGCGCACAGAAGCTGGGAACTCGGCCAACCATATATTGATATCTCACAAAACAACCATAAGTTGATATTTTTGTGAATCGAGTATTTCAGCAAAACTACTGCAGTAAGAA`
-3.56
